Experiment: Cmax after 10 mg/kg oral administration in rat
Assay type: ADME, organism-based
Parameters: dose 10 mg/kg, route oral
Conditions: in vivo
Examples of compounds with documented Cmax follow.
Hi! Could you send only the number? It should be in ng/mL, unit omitted.

Briefly, Cmax measured for Cc1cc(=O)c(Oc2ccc(F)cc2F)c(-c2ccc(S(C)(=O)=O)cc2)o1 : 6800

Lab note: measured Cmax of Cc1cc(=O)c(Oc2ccc(Cl)cc2)c(-c2ccc(S(C)(=O)=O)cc2)o1 was 5400

Short answer for Cc1cc(=O)c(Oc2ccc(Br)cc2F)c(-c2ccc(S(C)(=O)=O)cc2)o1 : Cmax was 900

Attention now shifts to the item below.
// recorded Cmax for Cc1cc(=O)c(Oc2ccc(Cl)cc2F)c(-c2ccc(S(C)(=O)=O)cc2)o1 : 2000
